- Test target: T1, huIL-17RA-FLAG-polyHis (human, UniProt Q96F46 33-320)
- T1 construct: also called IL-17RA-FLAG-pHis; wild-type IL-17RA
- Experimental details: binning; IL-17RA held by bead mAb C
Measurement kind: normalized MFI

| Binder | Observed |
| --- | --- |
| AMH16/AML16 (antibody, IgG2, V domains shown, human mAb from IgG2 XenoMouse mice; also called AM-16; antibody O) VH: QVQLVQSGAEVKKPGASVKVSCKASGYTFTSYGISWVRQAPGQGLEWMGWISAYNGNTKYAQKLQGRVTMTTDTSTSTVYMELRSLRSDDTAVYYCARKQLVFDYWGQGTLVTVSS VL: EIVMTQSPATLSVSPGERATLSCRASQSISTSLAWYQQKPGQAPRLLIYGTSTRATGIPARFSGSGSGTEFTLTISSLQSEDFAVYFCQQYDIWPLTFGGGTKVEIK | 4510 |
| AMH10/AML10 (antibody, IgG2, V domains shown, human mAb from IgG2 XenoMouse mice; also called AM-10; antibody F) VH: QVQLQESGPGLVKPSQTLSLTCTVSGGSISSGGYYWSWIRQHPGKGLEWIGYIYFSGSAYYNPSLKSRVAISVDTSKNQFSLKLSSVTAADTAVYYCAREYYDSSGYPDAFDIWGQGTMVTVSS VL: DIQMTQSPSSVSASVGDRVTITCRASQGIRSWLAWYQQKPGKAPKLLIFAASSLQSGVPSRFSGSGSGTEFTLTISSLQPEDFATYYCQQANNFPRTFGQGTKVEIK | 253 |
| AMH7/AML7 (antibody, IgG2, V domains shown, human mAb from IgG2 XenoMouse mice; also called AM-7; antibody D) VH: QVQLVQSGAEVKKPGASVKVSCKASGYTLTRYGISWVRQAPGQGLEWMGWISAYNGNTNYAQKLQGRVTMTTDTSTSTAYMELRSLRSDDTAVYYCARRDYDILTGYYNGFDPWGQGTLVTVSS VL: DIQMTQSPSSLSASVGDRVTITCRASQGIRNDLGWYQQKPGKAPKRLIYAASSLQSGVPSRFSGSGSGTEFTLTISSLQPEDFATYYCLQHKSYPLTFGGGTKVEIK | 217 |
| AMH6/AML6 (antibody, IgG2, V domains shown, human mAb from IgG2 XenoMouse mice; also called AM-6; antibody E) VH: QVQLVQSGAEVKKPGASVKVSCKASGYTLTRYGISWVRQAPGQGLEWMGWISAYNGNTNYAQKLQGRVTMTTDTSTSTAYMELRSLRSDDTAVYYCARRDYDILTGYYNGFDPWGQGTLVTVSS VL: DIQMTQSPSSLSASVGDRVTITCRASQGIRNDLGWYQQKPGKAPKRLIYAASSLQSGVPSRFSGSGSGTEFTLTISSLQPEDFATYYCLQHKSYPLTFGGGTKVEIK | 173 |
